# System: MALME-3M melanoma
# assayProcedure: NCI tumour cell line growth inhibition, 48 h; in the data active = GI50 below about 0.43 µM; inactive = the rest
Please reply with one of these outcomes: True (active), False (inactive)

How did this test come out for C=CCC(N[C@@H](CO)c1ccccc1)c1cn(Cc2ccccc2Cl)c(=O)n(Cc2ccccc2Cl)c1=O (some centres undefined) ? False

Likewise for CCOC(=O)[C@@H](C)C[C@H](Cc1ccccc1)NC(=O)c1nc([C@@H](C[C@H](C(C)C)N(C)C(=O)[C@@H](NC(=O)[C@H]2CCCCN2C)C(C)C)OC(C)=O)sc1CCOCc1ccccc1 ? True

Same lookup for Cc1ccc(Cl)cc1Nc1nc(C(F)(F)F)ccc1C(=O)N/N=C/c1cccnc1 , please. False

Please give the result for CC(C)(C)N1CCC1CN (centres undefined) too. False

Now try O=S(=O)([O-])c1ccc(N=Cc2ccccc2[O-])cc1.O=S(=O)([O-])c1ccc(N=Cc2ccccc2[O-])cc1.[O]=[U+2]=[O] . False

Another compound to check: CSc1ccc(-c2ccccc(=O)c2O)cc1 False

Same lookup for CCOC(=O)C1=C(C)N=c2s/c(=C\c3ccccc3O)c(=O)n2C1c1ccc(OC)c2ccccc12 (centres undefined) , please. False

Let us now turn to CC1(C)N=C(N)N=C(N)N1c1ccc(CCCCc2ccccc2)c(Cl)c1 False

Then what about the compound O=C(COc1ccc(/C=C2\COc3ccccc3C2=O)cc1)Nc1nccs1 ? False

Also, O=C1/C(=C\c2ccc(F)cc2)CN(C(=O)c2ccccc2)C/C1=C\c1ccc(F)cc1 please. False

Queued: CSC1=Nc2c(c(C)c(-c3ccccc3)n2CCCN2CCCCC2)C2=NC(=O)C[C@H](C)N12 False

Now try Cn1cc(C2=C(c3ccccc3[N+](=O)[O-])C(=O)NC2=O)c2ccccc21 . False

Same again, this time with C[C@]12CCc3nc(Nc4cccc(O)c4)sc3C1=CC[C@@H]1[C@@H]2CC[C@]2(C)/C(=N\NC(N)=S)CC[C@@H]12 False

And then COc1ccc(C(=O)Nc2ncc(Cc3cccc(Cl)c3)s2)cc1OC , what is it? False

* * *

Can you tell me TGI for the items I'm about to list?
# System: SK-MEL-28 melanoma
# assayProcedure: NCI tumour cell line growth inhibition, 48 h

I'm curious: which TGI was measured for COC(=O)[C@@H](C)C[C@H](Cc1cn(C)c2ccccc12)NC(=O)c1csc([C@@H](C[C@H](C(C)C)N(C)C(=O)[C@@H](NC(=O)[C@H]2CCCCN2C)C(C)C)OC(C)=O)n1 tested on SK-MEL-28 melanoma? > 16.7 µM

What would you report for CCCC(=O)NC(Nc1cc(C)ccn1)(C(=O)OCC)C(F)(F)F (centres undefined) ? > 100 µM

COC(=O)[C@H](Cc1ccccc1)NC(=O)/C(=C/C(C)C)NC(=O)[C@H](CCSC)NC=O ? > 100 µM

Can you handle CCN(CC)CCNc1ccc(C)c2sc3cc(Cl)ccc3c(=O)c12 next? 3.52 µM

Similarly, CCCCCCCCOCC(O)COC(C)C (centres undefined) ? > 100 µM

Then COc1ccc(N=C2S/C(=N\C(=Nc3ccccc3)SCc3ccccc3)N(c3ccccc3)C2=Nc2ccc(OC)cc2)cc1 ? > 100 µM

Next up: CC(C)(C)n1c(=O)n2n(c1=O)Cc1cccc3cccc(c13)C2 58.8 µM

Field entry: CCOC(=O)c1ccccc1OC(=O)NNc1ccccc1 > 100 µM

Record: CN1CCC(COc2cnc(-c3cccc(Cn4nc(-c5cccc(C#N)c5)ccc4=O)c3)nc2)CC1 3.52 µM
